experiment: qHTS assay to identify small molecule agonists of the estrogen related receptor (ERR) signaling pathway from Tox21 library (AID 1224849); conditions: ERR reporter cell line, ONE-Glo luciferase, 18 h; at 92.4 µM (top of the series) unless noted; further: on the % scale 0 is the no-effect control and ±100 the full control effect; nearly all actives have a fitted effect of over 15% in size
The source made the active and inactive calls. The call rests on the fitted dose curve.
readout_name: activity change, positive = activation

Ask | For OC1(c2ccc(Cl)c(C(F)(F)F)c2)CCN(CCCC(c2ccc(F)cc2)c2ccc(F)cc2)CC1 , what is its reported activity change, positive = activation?
Reply | -71.9% [at 42.5 µM] (inactive)

Ask | Item: CC1(C)CCC(C)(C)c2cc(C(=O)Nc3ccc(C(=O)O)cc3)ccc21
Reply | -24.2% (inactive)

Ask | And then COc1ccc(CN2CCN(C(c3ccc(F)cc3)c3ccc(F)cc3)CC2)c(OC)c1OC , what is it?
Reply | -66.6% [at 42.5 µM] (inactive)

Ask | Try the compound O=C(NO)C1(NS(=O)(=O)c2ccc(Oc3ccc(F)cc3)cc2)CCOCC1
Reply | -35.1% (inactive)

Ask | Param item: CN(C)[C@@H]1C(=O)C(C(N)=O)=C(O)[C@@]2(O)C(=O)C3=C(O)c4c(O)ccc(Cl)c4[C@@H](O)[C@H]3C[C@@H]12
Reply | -10.9% [at 42.5 µM] (inactive)

Ask | Further, for CCCC(c1cc(C(C)(C)C)c(O)cc1C)c1cc(C(C)(C)C)c(O)cc1C ?
Reply | -83.3% (inactive)

Ask | What do we get for Cc1cc(O)c(C(C)(C)C)cc1Sc1cc(C(C)(C)C)c(O)cc1C ?
Reply | -80.3% (inactive)

Ask | Same question, O=C(Oc1cccc2cccnc12)c1ccccc1 this time
Reply | -60.1% [at 42.5 µM] (inactive)

Ask | Similarly, CCCCCCCCCCCCCCCC[N+](C)(C)CCN(Cc1ccc(OC)cc1)c1ncccn1 ?
Reply | -53.6% [at 42.5 µM] (inactive)

Ask | CCCCCCCC/C=C/CCCCCCCC1=NCCN1CCO , same question.
Reply | -79.9% (inactive)

Ask | Request: O=c1[nH]cnc2nc[nH]c12
Reply | 9.65% [at 42.5 µM] (inactive)

Ask | Same thing, different compound: O=S1(=O)CC(Cl)(Cl)C(Cl)(Cl)C1
Reply | -79.8% (inactive)

Ask | Then this compound: C/C=C(\C)C(=O)OCc1ccccc1
Reply | 5.16% (inactive)

Ask | Further, for CCCN(CCC)c1c([N+](=O)[O-])cc(C(F)(F)F)c(N)c1[N+](=O)[O-] ?
Reply | -75.7% (inactive)

Ask | Entry CCCCCCCC[N+](CCCCCCCC)(CCCCCCCC)CCCCCCCC please
Reply | -81.8% (inactive)

Ask | Similarly, ON=C1CCCC1 ?
Reply | -71.1% (inactive)

Ask | And COc1cc(-c2ccc(N=C=O)c(OC)c2)ccc1N=C=O ?
Reply | -0.106% [at 42.5 µM] (inactive)

Ask | Thanks! And CC[C@@]1(O)C(=O)OCc2c1cc1n(c2=O)Cc2c-1nc1ccccc1c2/C=N/OC(C)(C)C ?
Reply | -54.3% [at 42.5 µM] (inactive)

Ask | Subsequent entry: Cc1ccc(-n2nc(C(C)(C)C)cc2NC(=O)Nc2ccc(OCCN3CCOCC3)c3ccccc23)cc1
Reply | -18.8% [at 42.5 µM] (inactive)

Ask | Then Nc1ccccc1O ?
Reply | -27.3% (inactive)

Ask | Could you do the same for CCCCCCCCCCCCCCCCCC[N+](C)(C)C , please?
Reply | -79.1% (inactive)

Ask | Could you do the same for CN1CCN(CCC(=O)N2c3ccccc3Sc3ccc(C(F)(F)F)cc32)CC1 , please?
Reply | -67.1% [at 42.5 µM] (inactive)

Ask | Same read-out for CCN1/C(=C/C=C/c2sc3ccccc3[n+]2CC)Sc2ccccc21 ?
Reply | -58.8% [at 19 µM] (inactive)

Ask | Item: CCCCCCCCCCn1cc[n+](CCCCCCCCCC)c1C
Reply | -74.4% (inactive)

Ask | Also, OCc1c[nH]c2ccccc12 please.
Reply | -39.5% (inactive)

Ask | CCC(N)(CO)CO ?
Reply | 6.45% (inactive)

Ask | Let us now turn to Cc1cc(O)c2ccccc2c1O
Reply | -47.1% [at 42.5 µM] (inactive)

Ask | Thanks! And CC/C(=C(\c1ccc(O)cc1)c1ccc(OCCN(C)C)cc1)c1ccccc1 ?
Reply | -78.4% (inactive)

Ask | Also need Cn1cc(C(=O)[C@@H]2CCc3nc[nH]c3C2)c2ccccc21 , thanks.
Reply | -13.3% [at 42.5 µM] (inactive)

Ask | Next: Oc1c(Cl)cc(Cl)c2cccnc12
Reply | -66% [at 42.5 µM] (inactive)

Ask | C=C(C)C(=O)OCC(O)COc1ccc(C(C)(C)c2ccc(OCC(O)COC(=O)C(=C)C)cc2)cc1 (centres undefined) ?
Reply | -80.3% (inactive)

Ask | Same read-out for Cc1[nH]cnc1C[C@H]1CCc2c(C)c3ccccc3n2C1=O ?
Reply | -63.7% (inactive)

Ask | Another compound to look at: CCCCCCCC[P+](CCCCCCCC)(CCCCCCCC)CCCCCCCC
Reply | -78.2% (inactive)

Ask | Follow-up item: S=c1[nH]c2ccccc2s1
Reply | -59.1% (inactive)

Ask | Moving on to CCC1=C[C@@H]2CN(C1)Cc1c([nH]c3ccccc13)[C@@](C(=O)OC)(c1cc3c(cc1OC)N(C)[C@H]1[C@@](O)(C(=O)OC)[C@H](OC(C)=O)[C@]4(CC)C=CCN5CC[C@]31[C@@H]54)C2
Reply | -48.8% [at 42.5 µM] (inactive)

Ask | Next up: NNc1nc(-c2ccc([N+](=O)[O-])cc2)cs1
Reply | -52.6% (inactive)

Ask | # iterate: COc1cc(-c2nc(NC(=O)c3cc4cc(C)cc(C)c4n3CC(=O)O)sc2CCC2CCCCC2)c(OC)cc1Cl
Reply | -61.8% (inactive)

Ask | Please do the same for N#CC1(c2ccc(F)cc2)CCC(=O)CC1 as well.
Reply | 6.11% [at 42.5 µM] (inactive)

Ask | Queued: CC(C)c1ccc2c(c1)CC[C@H]1[C@](C)(CN)CCC[C@]21C
Reply | -75.7% (inactive)

Ask | Same again, this time with Cc1cc(N)c(S(=O)(=O)O)cc1Cl
Reply | 5.22% (inactive)

Ask | Now the same for Cc1c(C)c2c(c(C)c1OC(=O)CCC(=O)O)CC[C@@](C)(CCC[C@H](C)CCC[C@H](C)CCCC(C)C)O2
Reply | -23.6% (inactive)

Ask | Likewise for CC[C@H]1O[C@]2(CC[C@@H]1C)C[C@@H]1C[C@@H](C/C=C(\C)C[C@@H](C)/C=C/C=C3\CO[C@@H]4[C@H](O)C(C)=C[C@@H](C(=O)O1)[C@]34O)O2 ?
Reply | -67.4% (inactive)

Ask | Query [Cl][Au]([Cl])[Cl] next
Reply | -67.4% (inactive)

Ask | Please do the same for CCC(C)Nc1ccc(NC(C)CC)cc1 (centres undefined) as well.
Reply | -80.2% (inactive)
